measured-target: Human Testicular C17,20-lyase (Homo sapiens, UniProt P05093)
Construct: incubating human testicular microsomes; from tissue; host or cells: human testis, microsomes
Sequence (P05093 whole entry): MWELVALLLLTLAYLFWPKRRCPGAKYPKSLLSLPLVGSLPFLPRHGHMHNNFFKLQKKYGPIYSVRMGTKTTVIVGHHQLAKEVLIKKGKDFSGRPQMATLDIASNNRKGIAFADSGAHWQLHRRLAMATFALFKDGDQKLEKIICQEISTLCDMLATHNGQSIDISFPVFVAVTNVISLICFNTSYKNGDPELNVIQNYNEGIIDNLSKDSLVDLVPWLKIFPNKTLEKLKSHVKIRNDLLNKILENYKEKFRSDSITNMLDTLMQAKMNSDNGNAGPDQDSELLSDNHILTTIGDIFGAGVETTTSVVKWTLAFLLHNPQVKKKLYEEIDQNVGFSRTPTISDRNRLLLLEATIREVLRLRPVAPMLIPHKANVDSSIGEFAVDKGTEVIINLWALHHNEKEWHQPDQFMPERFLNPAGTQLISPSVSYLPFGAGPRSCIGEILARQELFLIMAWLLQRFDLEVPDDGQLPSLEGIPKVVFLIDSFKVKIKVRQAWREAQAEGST
experiment-description: Inhibition of human testicular C17,20-lyase (pregnenolone substrate, testicular microsomes)
Format: biochemical
details: read-out: % Inhibition C17,20-lyase, [I] = 100 nM

[
  {
    "compound": "CC1N[C@]12CC[C@H]1[C@@H]3CC=C4C[C@@H](O)CC[C@]4(C)[C@H]3CC[C@@]12C (stereo partly drawn) [Compound L-22]",
    "units-text": "%",
    "inhibition at 0.1 µM": 3.33
  },
  {
    "compound": "C[C@@H](O)C1=CC[C@H]2[C@@H]3CCC4=CC(=O)CC[C@]4(C)[C@H]3CC[C@]12C [Compound L-10, 20β-hydroxy-pregna-4,16-dien-3-one]",
    "units-text": "%",
    "inhibition at 0.1 µM": 2.28
  },
  {
    "compound": "Cc1nc([C@H]2CC[C@H]3[C@@H]4CC=C5C[C@@H](O)CC[C@]5(C)[C@H]4CC[C@]23C)c[nH]1 [Compound L-4]",
    "units-text": "%",
    "inhibition at 0.1 µM": 70.2
  },
  {
    "compound": "C[C@@H](O)C1=CC[C@H]2[C@@H]3CC=C4C[C@@H](O)CC[C@]4(C)[C@H]3CC[C@]12C [Compound L-8]",
    "units-text": "%",
    "inhibition at 0.1 µM": 66.2
  },
  {
    "compound": "CC1N[C@@]12CC[C@H]1[C@@H]3CC=C4C[C@@H](O)CC[C@]4(C)[C@H]3CC[C@@]12C (stereo partly drawn) [Compound L-21]",
    "units-text": "%",
    "inhibition at 0.1 µM": 29.1
  }
]
